normalized growth listing for selected molecules.
- Assay notes: chemical genetic growth profiling, strain panel (AID 1159580);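 further: tested at 20 µM; growth read once vehicle control cultures reached saturation at 30 °C; 1 = growth at the plate median or of vehicle wells; lower values mean less growth of the strain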
- Condition info: S. cerevisiae deletion strains, growth OD, locus YIL066C, strain RNR3, stronger effect = lower value
The whole screen tested about 5,500 compounds, of which about 2,000 (36%) were called active. About 18% were inconclusive and are not listed. Some of the results follow.
Form rule: numeric answer, no unit written next to it.

Worked examples, 5 molecules total:
| Molecule | normalized growth |
| --- | --- |
| COC(=O)CC1C(C)(C)C(=O)C2CC3(O)C4=CC(=O)OC(c5ccoc5)C4(C)CCC3C1(C)C2=O (centres undefined) | 1.01 |
| COc1cc(OC)c2c(OC)c(-c3ccc4c(c3)OCO4)c(=O)oc2c1 | 0.982 |
| COc1ccc([C@@H](C)C(=O)c2ccc(O)cc2O)cc1 | 0.961 |
| CC1(C)CC23C(=O)CCC(O)C2(C)CCC13 (centres undefined) | 1.01 |
| CON | 1.02 |

Ask: Find the recorded normalized growth belonging to CC(NC(C)(C)C)C(=O)c1cccc(Cl)c1 (centres undefined) and report it.
Reply: 1.01

Ask: I would be grateful if you could share the reported normalized growth for O=C1C(=O)c2ccccc2C(O)=C1C1CCC(c2ccc(Cl)cc2)CC1 (centres undefined) .
Reply: 0.989

Ask: Give its normalized growth value. Item: COc1cc(Cc2cnc(N)nc2N)cc(OC)c1OC
Reply: 1

Ask: I am curious: what normalized growth value has been reported for CC(C)[C@@H]1CC[C@@H](C)CC1=O ?
Reply: 1.04

Ask: Requested field: normalized growth. Item: CCCCCC/C=C\CCCCCCCc1cccc(O)c1C(=O)O
Reply: 1.03

Ask: So what's the measured normalized growth for this one? CC(=O)OC1CCC23CC1(C)CCC2C(C)(C)CC3OC(C)=O (centres undefined)
Reply: 0.997

###

- Assay notes: chemical genetic growth profiling, strain panel (AID 1159580)
- Condition info: S. cerevisiae deletion strains, growth OD, locus YNL271C, strain bni1
Among all 5,500 compounds or so, about 2,000 (36%) were called active. Not shown: some 18% with an inconclusive outcome. Cut-off read from the data, not from the text of the source: active = normalized growth mostly below about 0.91 (no sharp cut-off); inconclusive = no clear call, values can overlap the other calls; inactive = mostly above about 0.92. This is one part of the list.
Respond using exactly one of the listed classes: active, inactive

Would you please look over these solved cases?
| Molecule | Group |
| --- | --- |
| CC(=O)CCCCn1c(=O)c2c(ncn2C)n(C)c1=O | inactive |
| COc1cc2cccc(OC)c(=O)c2c(OC)c1OC | inactive |
| N[C@@H](C(=O)N[C@@H]1C(=O)N2C(C(=O)O)=C(Cl)CS[C@H]12)c1ccccc1 | inactive |
| CNC(=O)N(C)c1nnc(C(C)(C)C)s1 | inactive |
| CN(C)CCC[C@@]1(c2ccc(F)cc2)OCc2cc(C#N)ccc21 | inactive |
| C=C(C)C1Cc2c(ccc3c(=O)c4c(oc23)COc2cc(OC)c(OC)cc2-4)O1 (stereo not given) | inactive |
| COc1ccc(-c2c(OC)c3c(OC)c4c(cc3oc2=O)OC(C)(C)C=C4)cc1 | inactive |
| CCC[C@@H]1C[C@@H](C(=O)N[C@H]([C@H]2O[C@H](SC)[C@H](O)[C@@H](O)[C@H]2O)[C@H](C)O)N(C)C1 | inactive |

Ask: Test call, this molecule: CC(C)C1CCC(C(=O)N[C@@H](Cc2ccccc2)C(=O)O)CC1 (stereo not given in full)
Reply: inactive

Ask: I would be grateful if you could indicate the recorded call for Cc1ccc(O)c(C(CCN(C(C)C)C(C)C)c2ccccc2)c1 (stereo not given) .
Reply: inactive

Ask: How was O=C(/C=C/c1ccccc1)c1ccc(O[C@@H]2O[C@H](CO)[C@@H](O)[C@H](O)[C@H]2O)cc1O classified in this test?
Reply: active

###

- Assay notes: chemical genetic growth profiling, strain panel (AID 1159580)
- Condition info: S. cerevisiae deletion strains, growth OD, locus YNL250W, strain rad50
About 2,000 (36%) of roughly 5,500 compounds were called active. Another 18% or so got no clear call; they are omitted. Rule as the data show it: active = normalized growth mostly below about 0.91 (no sharp cut-off); inconclusive = no clear call, values can overlap the other calls; inactive = mostly above about 0.92. This is one part of the list.
Choose one outcome from this list and give only that: active, inactive

Consider the worked cases shown below.
| Compound | Group |
| --- | --- |
| CC(=O)Oc1c(C)c(C)c2c(c1C)CCC(C)(CCCC(C)CCCC(C)CCCC(C)C)O2 (centres undefined) | inactive |
| Cn1c(=O)[nH]c2ncn(C)c2c1=O | inactive |
| C/C(=C\CO)CC[C@H](C)CCC[C@H](C)CCCC(C)C | active |

Now turn to the next compound.
Ask: What outcome does the record of this test show for O=C1C=C(O)c2ccccc2C1=O ?
Reply: inactive

###

- Assay notes: chemical genetic growth profiling, strain panel (AID 1159580)
- Condition info: S. cerevisiae deletion strains, growth OD, locus YPR167C, strain met16
Hit rate of the full screen: of about 5,500 compounds, about 2,000 (36%) were called active. Another 18% or so got no clear call; they are omitted. Cut-off read from the data, not from the text of the source: active = normalized growth mostly below about 0.91 (no sharp cut-off); inconclusive = no clear call, values can overlap the other calls; inactive = mostly above about 0.92. This is one part of the list.
Pick one: active, inactive

| Compound | Group |
| --- | --- |
| CC(C)=CCC/C(C)=C/CO | inactive |
| Cn1c(=O)[nH]c2nc[nH]c2c1=O | inactive |
| O=C(c1ccccc1)c1ccc2n1CCC2C(=O)O (stereo not given) | inactive |
| CC(=O)OC1CCC23CC1(C)CCC2C(C)(C)CC3OC(C)=O (stereo not given) | inactive |

Ask: Look up the recorded call for CC(=O)OC1CCC2(O)CC1(C)CCC1C2CC1(C)C (stereo not given) in this test.
Reply: inactive

Ask: // param item: CC[C@H]1OC(=O)[C@H](C)[C@@H](O[C@H]2C[C@@](C)(OC)[C@@H](O)[C@H](C)O2)[C@H](C)[C@@H](O[C@@H]2O[C@H](C)C[C@H](N(C)C)[C@H]2O)[C@](C)(O)C[C@@H](C)/C(=N/OCOCCOC)[C@H](C)[C@@H](O)[C@]1(C)O ; yields the recorded call
Reply: inactive

Ask: Dear all, I need the recorded test outcome for NS(=O)(=O)c1cc2c(cc1Cl)NCNS2(=O)=O , thank you.
Reply: inactive

Ask: I would be grateful if you could indicate the recorded call for CC(C)N1C(=O)c2ccccc2NS1(=O)=O .
Reply: inactive

Ask: Tell me the recorded outcome of this test for O=C1NS(=O)(=O)c2ccccc21 .
Reply: inactive

###

- Assay notes: chemical genetic growth profiling, strain panel (AID 1159580);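 further: tested at 20 µM; growth read once vehicle control cultures reached saturation at 30 °C; 1 = growth at the plate median or of vehicle wells; lower values mean less growth of the strain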
- Condition info: S. cerevisiae deletion strains, growth OD, locus YBR021W, strain FUR4, stronger effect = lower value
Hit rate of the full screen: of about 5,500 compounds, about 2,000 (36%) were called active. About 18% were inconclusive and are not listed. This is one part of the list.
Measured attribute: normalized growth
No unit in the answer, please; the number alone is enough.

Field: example entries. Status: answers known.
| Molecule | normalized growth |
| --- | --- |
| COc1cc2cccc(OC)c(=O)c2c(OC)c1OC | 0.994 |
| C/C(=C\CO)CC[C@H](C)CCC[C@H](C)CCCC(C)C | 1 |
| CC(=O)NS(=O)(=O)c1ccc(N)cc1 | 0.987 |
| CC(C)=CCC/C(C)=C/CO | 1 |

Pending molecule:
Ask: What does the data say about its normalized growth? Entry: CNC(=O)Oc1cccc2c1OC(C)(C)C2
Reply: 0.994

###

- Assay notes: chemical genetic growth profiling, strain panel (AID 1159580);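 further: tested at 20 µM; growth read once vehicle control cultures reached saturation at 30 °C; 1 = growth at the plate median or of vehicle wells; lower values mean less growth of the strain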
- Condition info: S. cerevisiae deletion strains, growth OD, locus YDR162C, strain NBP2, stronger effect = lower value
The campaign covered roughly 5,500 compounds. About 2,000 (36%) were called active. Another 18% or so got no clear call; they are omitted. This is one part of the list.
This section presents compounds with their documented normalized growth values.
Respond with the number and no other words.

Recorded normalized growth, per entry:
| Molecule | Number |
| --- | --- |
| O[C@H]1[C@H](O)[C@@H](O)C2OC[C@H]1O2 | 0.918 |
| O=C(O)c1cccnc1C(=O)O | 1.02 |

Then this compound:
Ask: Recorded normalized growth for CON , please?
Reply: 0.98

###

- Assay notes: chemical genetic growth profiling, strain panel (AID 1159580);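 further: tested at 20 µM; growth read once vehicle control cultures reached saturation at 30 °C; 1 = growth at the plate median or of vehicle wells; lower values mean less growth of the strain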
- Condition info: S. cerevisiae deletion strains, growth OD, locus YFR010W, strain ubp6, stronger effect = lower value
Out of some 5,500 compounds screened, about 2,000 (36%) were called active. About 18% were inconclusive and are not listed. Some of the results follow.
Measured attribute: normalized growth
Please give the numeric answer without any surrounding text.

Consider the following illustrative entries.
| Compound | normalized growth |
| --- | --- |
| O=C(/C=C/c1ccc(O)cc1)c1ccc(O)cc1O | 1.02 |
| C[N+]12CCC(CC1)C(OC(=O)C(O)(c1ccccc1)c1ccccc1)C2 (centres undefined) | 0.981 |
| CNC(=O)Oc1ccccc1OC(C)C | 0.992 |

Here is another compound to look at.
Ask: # normalized growth lookup, item OC[C@H]1O[C@@H](Oc2ccc(O)cc2)[C@H](O)[C@@H](O)[C@@H]1O
Reply: 1.01

Each recorded value in this set is attributed to PubChem BioAssay AID1159580.
